Experiment: Cytotoxicity against human KB-3-1 cells at 150 uM after 72 hrs by MTT assay
Assay type: cell-based
Conditions: read-out: GI
Some molecules, each annotated with its measured inhibition at 72 h, 150 µM.
propertyName: inhibition at 72 h, 150 µM (%)

- COC(=O)C1=CO[C@@H](O[C@@H]2O[C@H](COC(C)=O)[C@@H](O)[C@H](O)[C@H]2O)[C@H]2[C@@H]1C=C[C@@]21C=C([C@H](O)c2ccc(O)cc2)C(=O)O1: 4.3
- COC(=O)C1=CO[C@@H](O[C@@H]2O[C@H](CO)[C@@H](O)[C@H](O)[C@H]2O)[C@H]2[C@@H]1C=C[C@@]21C=C([C@H](O)c2ccc(O)c(OC)c2)C(=O)O1: 13.1
- COC(=O)C1=CO[C@@H](O[C@@H]2O[C@H](CO)[C@@H](O)[C@H](O)[C@H]2O)[C@H]2[C@@H]1C=C[C@@]21C=C(C(=O)c2ccc(O)c(OC)c2)C(=O)O1 [DEHYDROMETHOXYGAERTNEROSIDE]: 6.1
- COC(=O)C1=CO[C@@H](O[C@@H]2O[C@H](COC(C)=O)[C@@H](O)[C@H](O)[C@H]2O)[C@H]2[C@@H]1C=C[C@@]21C=C([C@H](O)c2ccc(O)c(OC)c2)C(=O)O1: 9.3
- COC(=O)C1=CO[C@@H](O[C@@H]2O[C@H](CO)[C@@H](O)[C@H](O)[C@H]2O)[C@H]2[C@@H]1C=C[C@@]21C=C([C@H](O)c2ccc(O)cc2)C(=O)O1: 13.4

Every entry's value here was drawn from ChEMBL document CHEMBL1154986.
